# Test system: NCI-H266
# reported.conditions: human, 48 h
measurement.name: CC50 (µM)
Give just the number in µM; leave the unit off.

Input O=C(O)CCCCCN1C(=O)/C(=C/C=C/c2ccc([N+](=O)[O-])o2)SC1=S [14b] , output reported CC50. 96.3

---

# Tested on: SF-268
# reported.conditions: human, 48 h
measurement.name: CC50 (µM)
Report the value in µM with no unit label.

For O=C(O)CCCCCN1C(=O)/C(=C/C=C/c2ccc([N+](=O)[O-])o2)SC1=S [14b] , write its CC50. 9.99

---

# System: SNB-19
# procedure.details: NCI-60 SRB screen
# reported.conditions: SNB-19, 48 h
Could you mark each record label 1 if its TGI falls strictly under 5 µM, and label 0 if it equals or exceeds it?

Lab note: TGI threshold 5 µM. Does this molecule come in strictly under it? CC(C)C(C(=O)O)N1C(=O)/C(=C/C=C/c2ccc([N+](=O)[O-])o2)SC1=S (centres unmarked) label 1

Below 5 µM on TGI? Entry O=C(O)C(c1ccccc1)N1C(=O)/C(=C/C=C/c2ccc([N+](=O)[O-])o2)SC1=S (centres unmarked) label 0

Given the entry CCCC(C(=O)O)N1C(=O)/C(=C/C=C/c2ccc([N+](=O)[O-])o2)SC1=S (centres unmarked) , would its reported TGI be below 5 µM? label 1

For this molecule, is TGI lower than 5 µM? O=C(O)CCN1C(=O)/C(=C/C=C/c2ccc([N+](=O)[O-])o2)SC1=S [12b] label 0
